The molecules listed here are annotated with their pEC50.
measurement protocol: Cytotoxicity against human MCF7 neo/Her2 cells after 3 days by CellTiter-Glo assay
assay context: MCF7, 72 h
Lab note — pEC50 values are minus log10 of concentrations in M.

[Q] Any idea what pEC50 was measured for CCNC(=O)Nc1ccc(-c2nc3c(c(N4CCOC[C@@H]4C)n2)[C@H]2CC[C@@H](C3)N2C)cc1 ?
[A] 7.01

[Q] Any idea what pEC50 was measured for CCNC(=O)Nc1ccc(-c2nc3c(c(N4CCOC[C@@H]4C)n2)[C@H]2CC[C@@H](C3)N2C2COC2)cc1 ?
[A] 6.57

[Q] Any idea what pEC50 was measured for CCNC(=O)Nc1ccc(-c2nc3c(c(N4CCOC[C@@H]4C)n2)[C@@H]2CC[C@H](C3)N2C2COC2)cc1 ?
[A] 6.01

[Q] Any idea what pEC50 was measured for CCNC(=O)Nc1ccc(-c2nc3c(c(N4CCOC[C@@H]4C)n2)CN(C2COC2)CC3)cc1 ?
[A] 5.92
